In this section, each of the compounds is paired with its reported pEC50.
Tested on: T47D cells expressing mutant PI3Ka (H1047R)
Test: In vitro cell proliferation, T47D cells (CellTiter-Glo)
Format: cell-based
Conditions: inhibition of proliferation, 72 hours, read-out: Avg T-47D EC50
pEC50: −log10 of the molar value.

Illustrative cases are given below, each with its answer.
{"compound": "Cc1cc(C(C)Nc2ccccc2C(=O)O)c2cc(N3Cc4cc(F)cc(F)c4C3)n(C)c(=O)c2c1 (single isomer, unassigned) [Example 102]", "reported result": "4.82 to 5.70"}
{"compound": "C[C@@H](Nc1cccc(F)c1C(=O)O)c1cc(F)cc2c(=O)n(C)c(C3CC3(F)F)cc12 (single isomer, unassigned) [Example 480]", "reported result": "5.70 to 6.30"}
{"compound": "Cc1cc([C@@H](C)Nc2ccccc2C(=O)O)c2cc(N3CCN(CC(F)(F)C4CC4)CC3)n(C)c(=O)c2c1", "reported result": "6.30 to 9.00"}
{"compound": "CC(Nc1ccccc1C(=O)O)c1cc(F)cc2c(=O)n(C)c(-c3ccc(OCC(F)F)nc3)cc12 (stereo not shown)", "reported result": "6.30 to 9.00"}
{"compound": "Cc1cc(C(C)Nc2ccccc2C(=O)O)c2cc(N3CCN(CC(F)(F)F)CC3)n(C)c(=O)c2c1 (stereo not shown) [Example 61]", "reported result": "5.70 to 6.30"}

Query: pEC50; subject: Cc1cc(C(C)Nc2ccccc2C(=O)O)c2cc(N3CCN4C(=O)CCC4C3)n(C)c(=O)c2c1 (single isomer, unassigned) [Example 124] 5.70 to 6.30

# pEC50 lookup, item `Cc1cc([C@@H](C)Nc2ccccc2C(=O)O)c2cc(N3CCN(c4cccc(C)n4)CC3)n(C)c(=O)c2c1` 6.30 to 9.00

Give the measured pEC50 of COc1ccc(-c2cc3c(C(C)Nc4ccccc4C(=O)O)cc(C)cc3c(=O)n2C)cn1 (single isomer, unassigned) [Example 156] . 4.82 to 5.70

// query pEC50 value for entry Cc1cc(C(C)Nc2ccc(Cl)nc2C(=O)O)c2cc(N3Cc4ccc(F)cc4C3)n(C)c(=O)c2c1 (single isomer, unassigned) [Example 127] 4.82 to 5.70

Consider the compound shown here: Cc1cc(C(C)Nc2ccccc2C(=O)O)c2cc(N3C[C@@H]4[C@@H](C#N)[C@@H]4C3)n(C)c(=O)c2c1 (stereo partly shown) [Example 15] What is its recorded pEC50? 5.70 to 6.30

Entry Cc1cc(C(C)Nc2ccccc2C(=O)O)c2cc(N3CCN(c4ccc(C)nc4)CC3)n(C)c(=O)c2c1 (single isomer, unassigned) : reported pEC50 = ? 4.82 to 5.70

For the compound shown here, `C[C@@H](Nc1cccc(F)c1C(=O)O)c1cc(F)cc2c(=O)n(C)c(N3CC(C(F)(F)F)C3)cc12` , give the reported pEC50. 4.82 to 5.70

GET /values?readout=pEC50&item= Cc1cc(C(C)Nc2ccccc2C(=O)O)c2cc(C#Cc3ccccc3)n(C)c(=O)c2c1 (single isomer, unassigned) [Example 35] < 4.82
